STUDY TARGET: Protein farnesyltransferase (Rattus norvegicus, UniProt Q02293+Q04631)
EXPERIMENT: In vitro inhibitory concentration evaluated against P21ras Farnesyl transferase
pIC50: −log10 of the molar value.
So basically: pIC50 at 6 or higher? That is yes (1). Lower than 6? That is no (0).

1. CN[C@@H](CS)C(=O)N[C@H](C(=O)N[C@@H](Cc1ccccc1)C(=O)N[C@@H](CCSC)C(=O)O)C(C)C :: yes (1)
2. CSCC[C@H](NC(=O)[C@H](CCc1ccccc1)NC(=O)[C@@H](NC(=O)[C@@H](N)CS)C(C)C)C(=O)O :: yes (1)
3. CSCC[C@H](NC(=O)[C@H](Cc1ccccc1)NC(=O)[C@@H](NC(=O)[C@@H](N)CC(=O)O)C(C)C)C(=O)O :: no (0)
4. CSCC[C@H](NC(=O)[C@H](Cc1ccccc1)NC(=O)C(C)(C)NC(=O)[C@@H](N)CS)C(=O)O :: yes (1)
5. CSCC[C@H](NC(=O)[C@H](Cc1ccccc1)NC(=O)[C@@H](NC(=O)C[C@H](N)CS)C(C)C)C(=O)O :: no (0)
6. CSCC[C@H](NC(=O)[C@H](Cc1ccccc1)NC(=O)[C@@H](NC[C@@H](N)CS)C(C)C)C(=O)O :: yes (1)
7. CSCC[C@H](NC(=O)[C@H](Cc1ccccc1)NC(=O)[C@@H](NC(=O)[C@@H](N)CCS)C(C)C)C(=O)O (stereo in doubt; form 1) :: yes (1)
8. CSCC[C@H](NC(=O)[C@@H](NC(=O)[C@@H](NC[C@@H](N)CS)C(C)C)C(C)C)C(=O)O :: yes (1)
9. CSCC[C@H](NC(=S)[C@H](Cc1ccccc1)NC(=O)[C@@H](NC(=O)[C@@H](N)CS)C(C)C)C(=O)O :: yes (1)
10. CSCC[C@H](NC(=O)[C@H](Cc1ccccc1)NC(=O)[C@@H](NC(=O)[C@@H](N)CCC(=O)O)C(C)C)C(=O)O :: no (0)
11. CSCC[C@H](NC(=O)[C@H](Cc1ccccc1)N(C)C(=O)[C@@H](NC(=O)[C@@H](N)CS)C(C)C)C(=O)O :: yes (1)
12. CSCC[C@H](NC(=O)[C@@H](NC(=O)[C@@H](NC(=O)[C@@H](N)CS)C(C)C)C(C)C)C(=O)O :: yes (1)
13. CSCC[C@H](NC(=O)[C@H](Cc1ccccc1)NC(=O)[C@@H](NC(=O)[C@@H](N)CCS)C(C)C)C(=O)O (stereo in doubt; form 2) :: no (0)
14. CC(C)[C@H](NC(=O)[C@@H](N)CS)C(=O)N[C@@H](Cc1ccccc1)C(=O)N[C@@H](Cc1ccccc1)C(=O)O :: yes (1)
15. CSCC[C@H](NC(=O)[C@H](Cc1ccccc1)NC[C@@H](NC(=O)[C@@H](N)CS)C(C)C)C(=O)O :: yes (1)
16. CSCC[C@H](NC(=O)[C@H](Cc1ccccc1)NC(=O)[C@H](C)NC(=O)[C@@H](N)CS)C(=O)O :: yes (1)
17. CSCC[C@H](NC(=O)[C@H](Cc1c[nH]c2ccccc12)NC(=O)[C@@H](NC(=O)[C@@H](N)CS)C(C)C)C(=O)O :: yes (1)
18. CSCC[C@H](NC(=O)[C@H](Cc1ccccc1)NC(=O)[C@@H](NC(=O)[C@@H](N)Cc1cnc[nH]1)C(C)C)C(=O)O :: no (0)
19. CSCC[C@H](NC(=O)[C@H](Cc1ccccc1)NC(=O)[C@H](C(C)C)N(C)C(=O)[C@@H](N)CS)C(=O)O :: yes (1)
20. CSCC[C@H](NC(=O)[C@H](Cc1ccc2ccccc2c1)NC(=O)[C@@H](NC(=O)[C@@H](N)CS)C(C)C)C(=O)O :: yes (1)
